- Test system: DLD1
- experimentSummary: cell viability (CellTiter-Glo) relative to plate median (fraction of plate median); higher = more viable cells
- testContext: 5 µM; treatment time 24 h; reporter: 7TFP
Item-by-item account of cell viability
In your answer, state the number alone without any accompanying words.

For orientation, consider the following solved cases.
CCN1C[C@]2(COC)[C@H](O)C[C@H](OC)[C@@]34[C@@H]5C[C@@]6(O)[C@H](OC(=O)c7ccccc7)[C@@H]5[C@@](OC(C)=O)([C@@H]([C@H](OC)[C@H]23)[C@@H]14)[C@@H](O)[C@@H]6OC; 0.943
CC([C@H](O)c1ccccc1)N(C)C (some centres not stated); 0.991
CC(C)(C)[C@]1(O)C[C@@H]2OC(=O)C[C@@]23C(=O)O[C@@H]2OC(=O)[C@H](O)[C@]213; 0.922
CC[C@H]1[C@@H]2C[C@H]3[C@@H]4N(C)c5ccccc5[C@]45C[C@@H]([C@@H]2[C@H]5O)N3[C@@H]1O; 0.898
COC1C(O)C(O[C@H]2CC[C@]3(C=O)C4C(CC[C@]3(O)C2)[C@@]2(O)CC[C@H](C3=CC(=O)OC3)[C@@]2(C)C[C@H]4OC(C)=O)OC(C)C1OC(C)=O (some centres not stated); 0.929

Quick one: cell viability for C[C@H]1CC[C@]2(NC1)O[C@H]1C[C@H]3[C@@H]4CC[C@H]5C[C@@H](O)CC[C@]5(C)[C@H]4CC[C@]3(C)[C@H]1[C@@H]2C ?
0.956

Same question, C[C@@H]1CC[C@]2(NC1)O[C@H]1C[C@H]3[C@@H]4CC=C5C[C@@H](O)CC[C@]5(C)[C@H]4CC[C@]3(C)[C@H]1[C@@H]2C this time
0.943

---

- Tested on: DLD1
- experimentSummary: TCF/Wnt firefly luciferase reporter signal relative to plate median (fraction of plate median); higher = higher Wnt reporter signal
- testContext: 5 µM; treatment time 24 h; reporter: 7TFP
measurementName: TCF/Wnt firefly luciferase reporter signal
In your answer, state the number alone without any accompanying words.

For orientation, consider the following solved cases.
CC(=O)Nc1cc([As](=O)(O)O)ccc1O; 1.13
CC(=O)O[C@H]1CC[C@@]2(C)C(=CC[C@@H]3[C@@H]2CC[C@]2(C)C(=O)CC[C@@H]32)C1; 0.944
N#C/C(=C\c1cccc(O)c1)C(=O)O [alpha-CYANO-3-HYDROXYCINNAMIC ACID]; 1.15
COc1ccc2c(c1)[nH]c1c(C)nccc12; 0.623
COc1ccc(Cc2nccc3cc(OC)c(OC)cc23)cc1OC; 0.961
O=C(O)CCCc1ccc(N(CCCl)CCCl)cc1; 0.974
S=C=NCc1ccccc1; 0.748

Turning now to a further compound:
API: value(readout=TCF/Wnt firefly luciferase reporter signal, system=DLD1) for record C[C@]12CCC3C(CC[C@H]4C[C@H](OS(=O)(=O)O)CC[C@]34C)C1CCC2=O (stereo partly drawn)
0.755

---

- Test system: DLD1
- experimentSummary: TCF/Wnt firefly luciferase reporter signal relative to plate median (fraction of plate median); higher = higher Wnt reporter signal
- testContext: 5 µM; treatment time 24 h; reporter: 7TFP
measurementName: TCF/Wnt firefly luciferase reporter signal
In your answer, state the number alone without any accompanying words.

CN(C)C(=S)SSC(=S)N(C)C; 0.686
Cc1ccc(/N=C/N(C)/C=N/c2ccc(C)cc2C)c(C)c1; 1.1
CC(=O)[O][Hg][c]1ccccc1; 0.0227
CCCN1C[C@H](CSC)C[C@@H]2c3cccc4[nH]cc(c34)C[C@H]21; 1
CNNC; 1.03
CN(C)C(=O)Oc1cccc([N+](C)(C)C)c1; 1.03
CC(C)=CCC[C@]1(C)C=Cc2c(O)c3c(c(CC=C(C)C)c2O1)O[C@]12C(=C[C@@H]4C[C@H]1C(C)(C)O[C@@]2(C/C=C(/C)C(N)=O)C4=O)C3=O; 0.947
C=C[C@H]1CN2CC[C@H]1C[C@@H]2[C@@H](O)c1ccnc2ccccc12; 1.03

Quick one: TCF/Wnt firefly luciferase reporter signal for COc1cc(OC)c2c(c1)O[C@H](c1ccc(OC)c(OC)c1)[C@@H](O)C2 ?
0.952

Same question, NC(N)=NOCC[C@H](N)C(=O)O this time
1.05

Same question, O=C(O)CCC1NCC2CC1CN1CCCCC21 (configuration not stated) this time
1.27

Same question, CC[C@@H](C)C(=O)O[C@H]1[C@H](O)[C@H]2[C@@H](CN3C[C@@H](C)CC[C@H]3[C@@]2(C)O)[C@@H]2C[C@]34O[C@]5(O)[C@@H](OC(=O)[C@](C)(O)[C@@H](C)O)CC[C@@]3(C)[C@@H]5[C@@H](OC(C)=O)[C@@H](OC(C)=O)[C@H]4[C@@]21O (stereo in doubt) this time
1.18

Same question, NCC1(CC(=O)O)CCCCC1 this time
1.07

Same question, C[C@]12CC[C@H](Cl)C[C@@H]1CC[C@@H]1[C@@H]2CC[C@]2(C)C(=O)CC[C@@H]12 this time
1.07

Same question, CNC(C)(C)Cc1ccccc1 this time
1.09

---

- Tested on: SW480
- experimentSummary: TCF/Wnt firefly luciferase reporter signal relative to plate median (fraction of plate median); higher = higher Wnt reporter signal
- testContext: 5 µM; treatment time 24 h; reporter: 7TFP
Item-by-item account of TCF/Wnt firefly luciferase reporter signal
In your answer, state the number alone without any accompanying words.

For orientation, consider the following solved cases.
CC[C@H]1CN2CCc3cc(OC)c(OC)cc3[C@@H]2C[C@@H]1C[C@H]1NCCc2cc(OC)c(OC)cc21; 0.608
CCOC(=O)c1cncn1[C@H](C)c1ccccc1; 0.995
c1ccc2nc(N3CCNCC3)ccc2c1; 0.932
CC(=O)Oc1c2c(c(CC=C(C)C)c3c1C(=O)C1=C[C@@H]4CC5C(C)(C)OC(C/C=C(\C)C(=O)O)(C4=O)[C@@]15O3)OC(C)(CCC=C(C)C)C=C2 (stereo not given in full); 0.814

Turning now to a further molecule:
Quick one: TCF/Wnt firefly luciferase reporter signal for C=CCc1cc(OC)c2c(c1OC)OCO2 ?
0.976

---

- System: SW480
- experimentSummary: cell viability (CellTiter-Glo) relative to plate median (fraction of plate median); higher = more viable cells
- testContext: 5 µM; treatment time 24 h; reporter: 7TFP
Item-by-item account of cell viability
In your answer, state the number alone without any accompanying words.

For orientation, consider the following solved cases.
N=C(NCCC[C@H](N)C(=O)O)N[N+](=O)[O-]; 0.952
CCCC(C)C1(CC)C(=O)NC(=S)NC1=O (stereo not drawn); 1.02
CC(=O)Oc1c2c(c(CC=C(C)C)c3c1C(=O)C1=C[C@@H]4CC5C(C)(C)OC(C/C=C(\C)C(=O)O)(C4=O)[C@@]15O3)OC(C)(CCC=C(C)C)C=C2 (stereo partly drawn); 0.913
NCCc1ccc(O)cc1; 0.953
CC1(C)C(=O)C=C[C@]2(C)[C@H]3CC[C@@]4(C)[C@H](c5ccoc5)OC(=O)[C@H]5O[C@]54[C@]3(C)[C@H](O)C[C@@H]12; 0.989

API: value(readout=cell viability, system=SW480) for record CC(=O)Nc1cc([As](=O)(O)O)ccc1O
1.02

Same question, C[N+]1(C)CCCC(OC(=O)C(O)(c2ccccc2)c2ccccc2)C1 (stereo not drawn) this time
1.01

Same question, C/C=C(\C)C(=O)O[C@H]1C[C@@H](OC(C)=O)[C@@]2(C(=O)OC)CO[C@H]3[C@@H](O)[C@@](C)([C@]45O[C@@]4(C)[C@H]4C[C@@H]5O[C@@H]5OC=C[C@@]54O)[C@H]4[C@]1(CO[C@]4(O)C(=O)OC)[C@@H]32 this time
0.959

---

- Tested on: HCT116
- experimentSummary: cell viability (CellTiter-Glo) relative to plate median (fraction of plate median); higher = more viable cells
- testContext: 5 µM; treatment time 24 h; reporter: TCF4/Wnt
Define the label as t when cell viability is strictly less than 0.9 and as f in all remaining cases.

NCCCNCCSP(=O)(O)O; f
CC[C@H]1CN2CCc3cc(OC)c(OC)cc3[C@@H]2C[C@@H]1C[C@H]1NCCc2cc(OC)c(OC)cc21; t
NC(=O)CN1CCCC1=O; f
CCn1cc(C(=O)O)c(=O)c2cc3c(cc21)OCO3; f
CCOC(=O)C1C(C=C(C)C)C1(C)C (stereo unspecified); f

Check if cell viability falls below 0.9 for CC[C@@]1(O)C[C@H](O)c2c(cc3c(c2O)C(=O)c2c(O)ccc(O)c2C3=O)[C@H]1C(=O)OC .
f

Same question, C=CCN1CC[C@]23c4c5ccc(O)c4O[C@H]2C(=O)CC[C@@]3(O)[C@H]1C5 this time
f

Same question, COP(=S)(OC)SCn1nnc2ccccc2c1=O this time
f

Same question, CN(C)C(=S)SSC(=S)N(C)C this time
t

Same question, O=C1C[C@@H]2OCC=C3CN4CC[C@]56c7ccccc7N1[C@H]5[C@H]2[C@H]3C[C@H]46 this time
f
